test system: MCF7 breast; assay: NCI-60 one-dose screen, 48 h; conditions: 10 µM unless noted
About 83,000 compounds went through this panel and 20% of them were active in at least one assay; those are over-represented in the sample as a whole. Activity calls are given as the source filed them. Rule for the calls: active = growth percent below 10; inactive = the rest.
Choose one outcome from this list and give only that: active, inactive

Record excerpt, results attached:
Nc1nc(N)c2c(n1)NC(c1cccc(Nc3ccnc4cc(C(F)(F)F)ccc34)c1)CC(c1ccc(Cl)cc1)=N2 (configuration not stated)	inactive
CO[C@]12C=C/C(=C(/C(=O)OCc3cccnc3)C(=O)CCCCCCCC[C@]3(OC)C=C/C(=C(/C(=O)OCc4cccnc4)C(=O)CCCCCCCC1)O3)O2	active
Clc1ccc2c(NCCCn3cnc4c(N5CCCC5)nc(Cl)nc43)ccnc2c1	inactive
O=C(/C=C/c1cccc([N+](=O)[O-])c1)c1ccc(Nc2nc(Nc3ccc(F)cc3)nc(Nc3ccc(Cl)cc3)n2)cc1	inactive
CCc1ccc(Cc2cnc(NC(=O)c3cc(C)oc3C)s2)cc1	inactive

I would be grateful if you could indicate the recorded call for [2H]C([2H])([2H])Oc1ccc(/C=C/C(=O)/C=C(/C=C/c2ccc(OC([2H])([2H])[2H])c(OC([2H])([2H])[2H])c2OC([2H])([2H])[2H])OB(F)F)c(OC([2H])([2H])[2H])c1OC([2H])([2H])[2H] .
inactive

I would be grateful if you could indicate the recorded call for O=C(CSc1nnc(-c2ccc(Cl)c(Cl)c2)n1-c1ccccc1)Nc1ccc(C(=O)/C=C/c2ccc(Cl)cc2)cc1 .
inactive

----------
tested on: HS 578T breast; test: NCI-60 one-dose screen, 48 h (100 = growth as untreated, 0 = no growth, -100 = all killed); details: 10 µM unless noted
The panel holds about 83,000 compounds, 20% with a hit somewhere; the sample as a whole holds those more often.
growth values, listed per item
Your answer is read as %, so omit the unit and give the number.

O=C1C2C(c3cccs3)C=C(c3ccc(Cl)cc3)N2C(=S)N1c1ccccc1 (configuration not stated)	92.2
COc1cccc(NC(=O)c2sc3nc(C)c(C(=O)c4ccccc4)cc3c2N)c1	72.9
C/C(=C(\c1ccc(OCCCN(C)C)cc1)c1ccc(OC(=O)Cc2ccccc2)cc1)c1ccc(Cl)cc1	66.4
COc1ccc(C2=NN(C=O)C(c3ccc(Oc4nc5c(c(=O)n(C)c(=O)n5C)n4C)c(OC)c3)C2)cc1 (configuration not stated)	89.6

Okay, now this compound:
Which value of growth has been reported for CCN(CC)CCCNc1cc(OC)cc2cccnc12 in the records?
109

----------
tested on: U251 CNS; test: NCI-60 one-dose screen, 48 h (100 = growth as untreated, 0 = no growth, -100 = all killed); conditions: 10 µM unless noted
This is part of a sample that, as a whole, favours compounds with a hit. Of some 83,000 tested, about 20% had one in any assay.
Field: label. Allowed values: Y (growth < 90%) or N (growth >= 90%).

Consider the compound C#Cc1c(I)n(C2OC(CO[Si](C)(C)C(C)(C)C)C3OC(C)(C)OC32)c(=O)[nH]c1=O (centres undefined) . Is its growth strictly less than 90%?
Y

Consider the compound O=C(/C=C/c1ccco1)c1ccc(Nc2ccnc3cc(Cl)ccc23)cc1 . Is its growth strictly less than 90%?
Y

Consider the compound CN1CCN(Cc2ccc(NC(=O)c3cncc(C#Cc4cnc(N)c5ccc(C#N)cc45)c3)cc2C(F)(F)F)CC1 . Is its growth strictly less than 90%?
Y

Consider the compound CCN(CC)CCN1C(=O)c2c(c(C)c3c(oc4cc(OC)ccc43)c2C)C1=O . Is its growth strictly less than 90%?
Y
